Test: Cytotoxicity (cell survival rate) by tetrazolium staining in luciferase replicon cells
Type: cell-based
Settings: human, subgenomic HCV RNA replicon cells (LucNeo#2), LucNeo#2 subgenomic replicon cells
Observation Type: CC50 at 3 days (µM)
Use µM as the unit, but write only the number.

For record CCCCn1c(=O)c2ccccc2c2c(OC)c(C(O)(C(F)(F)F)C(F)(F)F)ccc21 the listed CC50 at 3 days is 25.3

* * *

Reported CC50 by item:
System: #50-1 (subgenomic replion) cells
Assay: Cytotoxicity in subgenomic replicon cells (GAPDH mRNA, real-time RT-PCR)
Format: cell-based
Details: GAPDH RNA level, 3 days
Protocol: The 70% confluent #50-1 (subgenomic replion) cells or NNC #2 (full-length replicon) cells (Ishii et al., J. Virol., 2006, vol. 80, pp. 4510-4520) were dispersed in a culture bottle with the aid of trypsin, and the resulting dispersion was resuspended in a high-glucose Dulbecco's modified Eagle medium (DMEM) containing 10% FCS and 1 mg/ml G418 (Sigma) (see FIGS. 1 and 2). […]
Use µM as the unit, but write only the number.

As a guide, the following entries are already answered.
[[record]]
molecule = "CCCCn1c(=O)c2ccccc2c2cc(C(O)(C(F)(F)F)C(F)(F)F)ccc21"
reading = 20.5

[[record]]
molecule = "CCCCn1c(=O)c2ccccc2c2ccc3ccccc3c21 [MN305, 5-butylbenzo[c]phenanthridin-6(5H)-one]"
reading = 24.3

[[record]]
molecule = "CCCCn1c(=O)c2ccc3ccccc3c2c2ccccc21 [MN314-A, 5-butylbenzo[k]phenanthridin-6(5H)-one]"
reading = 31.4


Please examine the following record next.
For record CCCCn1c(=O)c2ccccc2c2c3ccccc3ccc21 [MN313-A, 6-butylbenzo[a]phenanthridin-5(6H)-one] the listed CC50 is 44.5
